# System: Escherichia coli TOP10
# TEST_NAME: shrunken log2 fold change of peptide-encoding DNA abundance (4.5 h post-induction vs induction); higher = less antimicrobial activity (less host growth inhibition)
# CONDITION_NOTES: time post-induction: 4.5 h; library: site-saturation at positions 5, 18, 19, 20
MEASUREMENT_KIND: shrunken log2 fold change
// return just the number, without any unit appended

# BIOPOLYMER_SEQUENCE, ENDPOINT_RESULT
data = [
    ("RRIRCRPPRLPRPRPRPHWGPRP", 0.143),
    ("RRIRQRPPRLPRPRPRPMLDPRP", -0.206),
    ("RRIRNRPPRLPRPRPRPGQLPRP", -0.126),
    ("RRIRHRPPRLPRPRPRPEWTPRP", 0.0291),
    ("RRIRGRPPRLPRPRPRPRWWPRP", 0.667),
    ("RRIRNRPPRLPRPRPRPKRQPRP", -0.0692),
    ("RRIRCRPPRLPRPRPRPINYPRP", -0.271),
    ("RRIRRRPPRLPRPRPRPIQLPRP", -0.407),
]

Query :: Look at this sequence and give its reported shrunken log2 fold change. "RRIRFRPPRLPRPRPRPHMLPRP"
Result :: 0.798

Query :: Same for "RRIRVRPPRLPRPRPRPMPSPRP"
Result :: 0.333

* * *

# Tested on: Escherichia coli TOP10
# TEST_NAME: shrunken log2 fold change of peptide-encoding DNA abundance (4.5 h post-induction vs induction); higher = less antimicrobial activity (less host growth inhibition)
# CONDITION_NOTES: time post-induction: 4.5 h; library: site-saturation at positions 5, 18, 19, 20
Please mark YES if the recorded shrunken log2 fold change is equal to or greater than 0.04, and NO if it falls below.

Completed entries (count: 3):
# BIOPOLYMER_SEQUENCE, ASSIGNED_CLASS
measured = [
    ("RRIRLRPPRLPRPRPRPAASPRP", "YES"),
    ("RRIRVRPPRLPRPRPRPLNMPRP", "NO"),
    ("RRIRVRPPRLPRPRPRPWYSPRP", "NO"),
]

Query :: Quick check, shrunken log2 fold change >= 0.04? "RRIRVRPPRLPRPRPRPHHRPRP"
Result :: YES

Query :: Field entry: "RRIRKRPPRLPRPRPRPEMLPRP"
Result :: YES

* * *

# System: Escherichia coli TOP10;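 also: peptides expressed intracellularly from a pBAD plasmid library in pooled LB shake-flask culture, induced with 0.3% L-arabinose, DNA abundance read by NGS, three biological replicates, DESeq2 with apeglm shrinkage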
# TEST_NAME: shrunken log2 fold change of peptide-encoding DNA abundance (4.5 h post-induction vs induction); higher = less antimicrobial activity (less host growth inhibition)
# CONDITION_NOTES: time post-induction: 4.5 h; library: site-saturation at positions 5, 18, 19, 20
MEASUREMENT_KIND: shrunken log2 fold change
Keep the answer to the number alone.

// below: answered sequences
# BIOPOLYMER_SEQUENCE, shrunken log2 fold change
data = [
    ("RRIRDRPPRLPRPRPRPKDMPRP", 0.0342),
    ("RRIRWRPPRLPRPRPRPIIPPRP", -0.104),
    ("RRIRFRPPRLPRPRPRPDDAPRP", 0.133),
    ("RRIRARPPRLPRPRPRPSAKPRP", 0.471),
    ("RRIRTRPPRLPRPRPRPSGNPRP", -0.168),
    ("RRIRHRPPRLPRPRPRPWNIPRP", -0.246),
    ("RRIRSRPPRLPRPRPRPQYCPRP", -0.0172),
    ("RRIRGRPPRLPRPRPRPNEPPRP", 0.154),
    ("RRIRYRPPRLPRPRPRPGKCPRP", -0.264),
    ("RRIRWRPPRLPRPRPRPFMRPRP", 0.276),
]

Query :: Would you kindly share the measured shrunken log2 fold change for "RRIRSRPPRLPRPRPRPEWPPRP" ?
Result :: 0.112

Query :: Now this one: "RRIRYRPPRLPRPRPRPIIMPRP"
Result :: -0.0214

Query :: Subsequent entry: "RRIRMRPPRLPRPRPRPDQIPRP"
Result :: 0.0408

Query :: Now try "RRIRLRPPRLPRPRPRPHRKPRP" .
Result :: -0.295

Query :: Next record, please: "RRIRVRPPRLPRPRPRPETGPRP"
Result :: 0.206

Query :: Subsequent entry: "RRIRSRPPRLPRPRPRPLIRPRP"
Result :: -0.196

Query :: Follow-up item: "RRIRGRPPRLPRPRPRPQWLPRP"
Result :: 0.136

Query :: Again, but for "RRIRMRPPRLPRPRPRPHHRPRP"
Result :: -0.0556

Query :: Entry "RRIRKRPPRLPRPRPRPWALPRP" please
Result :: -0.0102

Query :: Input "RRIRERPPRLPRPRPRPYPKPRP"
Result :: -0.405

Query :: Record: "RRIRRRPPRLPRPRPRPDREPRP"
Result :: 0.0377

Query :: What do we get for "RRIRGRPPRLPRPRPRPSFLPRP" ?
Result :: -0.118
